B1: CPEB3 Ribozyme (parent)
chain: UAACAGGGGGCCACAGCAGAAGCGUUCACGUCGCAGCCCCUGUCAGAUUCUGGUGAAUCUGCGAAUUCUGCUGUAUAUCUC

# Variants of: B1
# method notes: self-cleavage, relative activity (ratio to wild type); higher = more cleavage; in vitro, sequencing
Decision: self-cleavage compared against 0.6; not below it gives Satisfied, below it gives Not satisfied.

{"mutation": "A35C U41G", "cat": "Not satisfied"}
{"mutation": "U25A U60C", "cat": "Not satisfied"}
{"mutation": "C23U A56U", "cat": "Not satisfied"}
{"mutation": "U1C C11U", "cat": "Not satisfied"}
{"mutation": "G42A U74C", "cat": "Satisfied"}
{"mutation": "A15G G63A", "cat": "Satisfied"}
{"mutation": "C40U A45G", "cat": "Not satisfied"}
{"mutation": "G52C U72A", "cat": "Satisfied"}
{"mutation": "G70A C71U", "cat": "Not satisfied"}
{"mutation": "A56G G63A", "cat": "Satisfied"}
{"mutation": "C34U U41G", "cat": "Not satisfied"}
{"mutation": "U31C A45C", "cat": "Not satisfied"}
{"mutation": "A21G U76C", "cat": "Satisfied"}
{"mutation": "A21U C40U", "cat": "Not satisfied"}
{"mutation": "A35U A57C", "cat": "Not satisfied"}
{"mutation": "C32G U43C", "cat": "Not satisfied"}
{"mutation": "U72G U74C", "cat": "Satisfied"}
{"mutation": "C38A U60C", "cat": "Not satisfied"}
{"mutation": "U1A U26A", "cat": "Satisfied"}
{"mutation": "C4U U78A", "cat": "Satisfied"}
{"mutation": "U67C U76C", "cat": "Not satisfied"}
{"mutation": "G42A U49A", "cat": "Not satisfied"}
